Biological target: T1, Cynomolgus Monkey VSIG4-L-His (cynomolgus monkey)
T1 construct: ECD with His tag; also called cyVSIG4-L; cyno VSIG4-L-His
T1 chain: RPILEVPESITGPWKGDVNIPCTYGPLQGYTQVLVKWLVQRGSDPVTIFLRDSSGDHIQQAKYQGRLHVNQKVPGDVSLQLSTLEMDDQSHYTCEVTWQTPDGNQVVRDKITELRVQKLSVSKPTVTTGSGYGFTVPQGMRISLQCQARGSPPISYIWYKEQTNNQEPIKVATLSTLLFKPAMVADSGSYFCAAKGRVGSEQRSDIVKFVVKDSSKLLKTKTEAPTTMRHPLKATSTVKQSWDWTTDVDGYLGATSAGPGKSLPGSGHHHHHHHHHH
Assay: BLI, IgG on AHC sensor, antigen 100 nM
MEASURED PARAMETER: KD relative to parental chimera (fold)

INSERT INTO measurements (binder, measured_parameter, result_number) VALUES
  ('h14C05.C humanized IgG4 (S228P) kappa (antibody, V domains shown) VH: QVQLVQSGAEVKKPGASVKVSCKASGYTFTNYGMNWVRQAPGQGLEWMGSINTYTGEATYADKFQGRVTMTLDTSTNTAYMELSSLRSEDTAVYYCARGDYYGRGTWFAYWGQGTLVTVSS VL: ETQVTQSPSSLSASVGDRVTITCRASQDVSTAVAWYQQKPGKAPKLLIYSASYRYPGVPSRFSGSGSGTDFTLTISSLQPEDFATYYCQQDYSSPWTFGGGTKLEIKR', 'KD relative to parental chimera', 0.6),
  ('h16E10.C humanized IgG4 (S228P) kappa (antibody, V domains shown) VH: QVQLVQSGAEVKKPGASVKVSCKASGYTFTNYWLGWVRQAPGQGLEWMGDIYPGGGYTNYNEKFQGRVTMTADTSTSTAYMELSSLRSEDTAVYYCAKFYYYGSSYYFDSWGQGTTVTVSS VL: DIVMTQSPDSLAVSLGERATINCKSSQSLLNSGNQENYLAWYQQKPGQPPKLLIYGASTRESGVPDRFSGSGSGTDFTLTISSLQAEDVAVYYCQNDHSYPLTFGGGTKLEIKR', 'KD relative to parental chimera', 1.1),
  ('h12A12.H humanized IgG4 (S228P) kappa (antibody, V domains shown) VH: QVQLVQSGSELKKPGASVKVSCKASGYTFTNYWMHWVRQAPGQGLEWMGYINPSTGYTDYNQGFTGRFVFSADTSVSTAYLQISSLKAEDTAVYYCIRGSDYYGRDYWGQGTTVTVSS VL: DIQMTQSPSSLSASVGDRVTITCQASQDISNYLNWYQQKPGKAPKLLIYYTSRLHSGVPSRFSGSGSGTDYTFTISSLQPEDIATYYCRQGNTLPWTFGGGTKLEIKR', 'KD relative to parental chimera', 1),
  ('h14D12.B humanized IgG4 (S228P) kappa (antibody, V domains shown) VH: QIQLVQSGAEVKKPGASVKVSCKASGYTFTNYGMNWVRQAPGQGLEWMGLINTYTGEPTYADKFQGRVTMTLDTSTSTAYMELSSLRSEDTAVYYCARERIYGYLHYFDYWGQGTTVTVSS VL: DVVMTQSPDSLAVSLGERATINCKASQSVDYDGDSYMNWYQQKPGQPPKLLIYAASNLESGVPDRFSGSGSGTDFTLTISSLQAEDVAVYYCQQSNEDPRTFGGGTKLEIKR', 'KD relative to parental chimera', 1.3),
  ('h12A12.E humanized IgG4 (S228P) kappa (antibody, V domains shown) VH: QVQMVQSGAEVKKPGASVKVSCKASGYTFTNYWMHWVRQAPGQGLEWMGYINPSTGYTDYNQKFQGRVTMTADKSTSTAYMELSSLRSEDTAVYYCIRGSDYYGRDYWGQGTTVTVSS VL: DIQMTQSPSSLSASVGDRVTITCQASQDISNYLNWYQQKPGKAPKLLIYYTSRLHSGVPSRFSGSGSGTDYTFTISSLQPEDIATYYCRQGNTLPWTFGGGTKLEIKR', 'KD relative to parental chimera', 0.6);

These data points were gathered from patent US20230348603A1.
